Provide the reported self-cleavage of each item.
B1: CPEB3 Ribozyme (parent)
chain: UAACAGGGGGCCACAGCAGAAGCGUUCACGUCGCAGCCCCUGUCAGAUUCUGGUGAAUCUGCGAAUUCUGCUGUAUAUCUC

# Variants of: B1
# assay: self-cleavage, relative activity (ratio to wild type); higher = more cleavage; in vitro, sequencing
Numbers only.

Sample answers from the record:
[[record]]
mutant_code = "A65U G73A"
measured_attribute = "self-cleavage"
experimental_result = 0.29

[[record]]
mutant_code = "A20G U80A"
measured_attribute = "self-cleavage"
experimental_result = 1.03

[[record]]
mutant_code = "C50A U67C"
measured_attribute = "self-cleavage"
experimental_result = 0.2

[[record]]
mutant_code = "A35U G52A"
measured_attribute = "self-cleavage"
experimental_result = 0.54

[[record]]
mutant_code = "A45U U54C"
measured_attribute = "self-cleavage"
experimental_result = 0.53

[[record]]
mutant_code = "U41A A75U"
measured_attribute = "self-cleavage"
experimental_result = 0.4

[[record]]
mutant_code = "U25A A75G"
measured_attribute = "self-cleavage"
experimental_result = 0.23

[[record]]
mutant_code = "U25A G70U"
measured_attribute = "self-cleavage"
experimental_result = 0.06


Take each entry in turn and give its self-cleavage.
1. A15U C34U
2. A13U U66G
3. C4A U67C

Return:
1. 0.29
2. 0.81
3. 0.44

Numbers sourced from the RNAGym collection of RNA variant scans (doi:10.1093/nar/gkz1192).
